measurement.conditions: 20 °C
Quick list: log10(solubility) per entry.
Values are log10 of solubility in µM.

Some compounds with recorded log10(solubility):
molecular.string | log10(solubility)
CCS(=O)(=O)c1nnc(N(C)C(=O)NC)s1 | 4.06
CON(C(=O)c1cc(C)oc1C)C1CCCCC1 | 0.08
Cc1cc(Cl)ccc1NC(=S)N(C)C | 2.34
CC(=O)OC[C@H]([C@H](OC(C)=O)c1ccccc1)[N+](=O)[O-] | 2.03

Next, consider the following compound.
Kindly note the recorded log10(solubility) for Clc1ccc(Sc2cc(Cl)c(Cl)cc2Cl)cc1 , which is -1.03

====

measurement.conditions: 25 °C
Here the recorded solubility is given for each entry.
Write the answer as a number in µM, unit excluded.

Solved entries (count: 3):
compound | units.symbol | solubility
CCOC(=O)C(C)Oc1ccc(Oc2nc3ccc(Cl)cc3o2)cc1 (centres undefined) | µM | 2.59
O=C1OCCC1N(C(=O)C1CC1)c1cccc(Cl)c1 (centres undefined) | µM | 2050
CCN(C(=O)Oc1cccc(NC(=O)OC(C)C)c1)c1ccccc1 | µM | 8.76

Summary for this compound, CCOC(=O)CNc1nc(Cl)nc(NC(C)C)n1 : solubility is 2740

Data origin, for the record: the OPERA property sets (Mansouri et al. 2018)
